- tested_system: PRMT5/MEP50 complex (Homo sapiens)
- Sequence (O14744 whole entry, the tested form may be a part): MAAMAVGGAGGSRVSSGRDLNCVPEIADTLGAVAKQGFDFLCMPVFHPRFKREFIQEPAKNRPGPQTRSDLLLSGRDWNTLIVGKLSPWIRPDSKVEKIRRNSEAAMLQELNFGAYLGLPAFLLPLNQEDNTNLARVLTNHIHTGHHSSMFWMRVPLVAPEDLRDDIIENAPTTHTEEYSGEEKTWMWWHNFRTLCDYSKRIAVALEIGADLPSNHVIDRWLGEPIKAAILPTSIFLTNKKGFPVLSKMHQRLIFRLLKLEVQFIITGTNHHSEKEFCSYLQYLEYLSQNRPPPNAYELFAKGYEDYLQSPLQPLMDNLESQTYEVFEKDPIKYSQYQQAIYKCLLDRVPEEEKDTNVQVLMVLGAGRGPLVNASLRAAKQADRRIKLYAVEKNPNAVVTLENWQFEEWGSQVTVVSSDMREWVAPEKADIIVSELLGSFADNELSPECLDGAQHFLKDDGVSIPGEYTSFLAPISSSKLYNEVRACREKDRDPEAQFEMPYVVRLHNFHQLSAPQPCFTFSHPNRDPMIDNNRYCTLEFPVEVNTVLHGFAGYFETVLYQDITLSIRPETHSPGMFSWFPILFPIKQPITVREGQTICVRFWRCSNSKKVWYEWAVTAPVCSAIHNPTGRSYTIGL
- Sequence (Q9BQA1 whole entry, further chain, the tested form may be a part): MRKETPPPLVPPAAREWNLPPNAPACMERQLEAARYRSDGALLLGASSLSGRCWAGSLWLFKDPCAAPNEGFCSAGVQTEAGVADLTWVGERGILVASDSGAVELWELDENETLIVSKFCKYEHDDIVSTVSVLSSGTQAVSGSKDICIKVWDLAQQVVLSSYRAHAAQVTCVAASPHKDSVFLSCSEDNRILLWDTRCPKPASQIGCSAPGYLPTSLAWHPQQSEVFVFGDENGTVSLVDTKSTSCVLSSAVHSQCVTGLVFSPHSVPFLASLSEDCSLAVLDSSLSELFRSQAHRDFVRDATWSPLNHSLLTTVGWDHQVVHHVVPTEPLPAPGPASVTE
- assay_details: Inhibition of recombinant human fetal brain FLAG-tagged PRMT5/full length human testis 6His-tagged MEP50 expressed in baculovirus infected insect Sf9 cells using human histone H4 (1 to 15 residues) as substrate preincubated for 30 mins followed by [3H]-SAM addition
pIC50: −log10 of the molar value.
parameter: pIC50

NS(=O)(=O)c1ccccc1OCC(=O)NCC(O)CN1CCc2ccccc2C1 (centres undefined) = > 7.00
CC(=O)Nc1cccc(-c2cccc(OCC(O)CN3CCc4ccccc4C3)c2)c1 (centres undefined) = 6.00 to 7.00
Cn1ncc2cnc(-c3cccc(OCC(O)CN4CCc5ccccc5C4)c3)cc21 (centres undefined) = 6.00 to 7.00
O=C(NC[C@H](O)CN1CCc2ccccc2C1)c1cccc(-c2ccccn2)c1 = > 7.00
O=C(NCC(O)CN1CCc2ccccc2C1)c1cncc(NC2CCOCC2)c1 (centres undefined) = > 7.00

// query Test system PRMT5/MEP50 complex (Homo sapiens); read-out pIC50; what value for OC(COCc1ccccc1)CN1CCc2ccccc2C1 (centres undefined) ?
// result 4.40 to 5.00

// query Test system PRMT5/MEP50 complex (Homo sapiens); read-out pIC50; what value for O=C(NCC(O)CN1Cc2ccccc2C1)c1cccc(-c2ccccn2)c1 (centres undefined) ?
// result 6.00 to 7.00

// query Test system PRMT5/MEP50 complex (Homo sapiens); read-out pIC50; what value for O=S1(=O)CCN(c2ccc(OCC(O)CN3CCc4ccccc4C3)cc2)CC1 (centres undefined) ?
// result 5.00 to 6.00

// query Test system PRMT5/MEP50 complex (Homo sapiens); read-out pIC50; what value for COc1ccc(-c2cccc(OCC(O)CN3CCc4ccccc4C3)c2)cc1Cl (centres undefined) ?
// result 6.00 to 7.00

// query Test system PRMT5/MEP50 complex (Homo sapiens); read-out pIC50; what value for CN1CCN(c2ccccc2OCC(=O)NC[C@@H](O)CN2CCc3ccccc3C2)CC1 ?
// result 5.00 to 6.00

// query Test system PRMT5/MEP50 complex (Homo sapiens); read-out pIC50; what value for CN(C)c1ncc(-c2cccc(OCC(O)CN3CCc4ccccc4C3)c2)cn1 (centres undefined) ?
// result 6.00 to 7.00

// query Test system PRMT5/MEP50 complex (Homo sapiens); read-out pIC50; what value for O=C(COc1ccccc1)NC[C@@H](O)CN1CCc2ccccc2C1 ?
// result 5.00 to 6.00

// query Test system PRMT5/MEP50 complex (Homo sapiens); read-out pIC50; what value for C[C@@H](Oc1cccc2cccnc12)C(=O)NC[C@@H](O)CN1CCc2ccccc2C1 ?
// result > 7.00

// query Test system PRMT5/MEP50 complex (Homo sapiens); read-out pIC50; what value for O=C1CN(c2cccc(Cl)c2)CCN1CC(O)CN1CCc2ccccc2C1 (centres undefined) ?
// result > 7.00
